Molecular target: Yer064c (UniProt P40041)
Sequence: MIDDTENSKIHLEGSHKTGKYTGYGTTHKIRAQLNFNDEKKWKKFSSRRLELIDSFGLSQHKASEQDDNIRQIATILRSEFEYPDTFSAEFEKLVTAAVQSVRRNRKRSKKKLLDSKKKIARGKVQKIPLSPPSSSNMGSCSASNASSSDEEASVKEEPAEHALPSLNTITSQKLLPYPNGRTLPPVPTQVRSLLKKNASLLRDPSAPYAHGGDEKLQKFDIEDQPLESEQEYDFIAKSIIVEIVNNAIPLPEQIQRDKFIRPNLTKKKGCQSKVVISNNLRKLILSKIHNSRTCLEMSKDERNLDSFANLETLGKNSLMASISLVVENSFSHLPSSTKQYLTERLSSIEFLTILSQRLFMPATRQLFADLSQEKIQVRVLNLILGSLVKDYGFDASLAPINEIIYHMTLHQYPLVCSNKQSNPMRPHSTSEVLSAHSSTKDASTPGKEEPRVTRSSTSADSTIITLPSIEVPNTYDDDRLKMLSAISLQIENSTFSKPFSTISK
Test: PBM E-score (8-mer binding enrichment) (E-score (-0.5 to 0.5)); higher = stronger / more preferred TF binding
Conditions: protein concentration: 200 nM; construct: GST-full length
Over roughly 33,000 sequences, “E-score (-0.5 to 0.5)” has its median near -0.036; the highest 2% begin near 0.37. The full list was thinned out, with the highest values kept by preference.
Grouping key: PBM E-score. Bins: low end: < 0.008; middle: ≥ 0.008 and < 0.2; high end: ≥ 0.2

Answered cases to consult:
[
  {
    "residue string": "ATGACTTG",
    "class assignment": "high end"
  },
  {
    "residue string": "ATGATTCC",
    "class assignment": "high end"
  }
]

Query: Hi there! Could you help me figure out the category for AGGACTTG please?
Reply: middle

Query: Textbook exercise: identify the category of the sequence given here, CGGATTCA , according to its measured value.
Reply: middle

Query: Please report the category associated with CAGATTCA , nothing else.
Reply: middle

Query: Class for CTCACTCC ?
Reply: middle

Query: Which class holds ATACTCTC ?
Reply: middle

Query: Class (by measured PBM E-score) for AACGGTGC
Reply: low end

Query: Pick a category. Item: CTGACCCC
Reply: low end

Query: Which category does the recorded PBM E-score put AAAGAGCA in?
Reply: low end

Query: Could you place CACTCTAA in its proper category? Many thanks.
Reply: middle

###

Target: Yer064c (UniProt P40041)
Sequence: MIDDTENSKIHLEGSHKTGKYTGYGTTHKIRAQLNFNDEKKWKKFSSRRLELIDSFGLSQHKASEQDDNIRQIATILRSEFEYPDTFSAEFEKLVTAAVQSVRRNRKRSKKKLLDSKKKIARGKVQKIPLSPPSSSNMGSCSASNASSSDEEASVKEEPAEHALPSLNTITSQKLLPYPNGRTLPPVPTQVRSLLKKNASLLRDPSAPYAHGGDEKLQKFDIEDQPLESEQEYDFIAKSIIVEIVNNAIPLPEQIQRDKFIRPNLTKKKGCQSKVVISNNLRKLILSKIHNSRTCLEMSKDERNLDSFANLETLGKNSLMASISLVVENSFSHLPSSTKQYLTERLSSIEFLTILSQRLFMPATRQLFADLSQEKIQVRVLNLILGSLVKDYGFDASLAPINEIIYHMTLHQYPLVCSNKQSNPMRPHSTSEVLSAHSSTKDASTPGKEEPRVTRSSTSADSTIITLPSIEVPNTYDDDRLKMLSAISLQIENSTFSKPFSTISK
Test: PBM E-score (8-mer binding enrichment) (E-score (-0.5 to 0.5)); higher = stronger / more preferred TF binding
Settings: protein concentration: 200 nM; construct: GST-full length
In all, about 33,000 sequences were measured (“E-score (-0.5 to 0.5)”: median about -0.036, highest 2% from about 0.37 on). The sample holds the highest values, similar sequences and a random draw of the others, so the mix is not that of the screen.
Values of PBM E-score greater than or equal to 0.1 map to Satisfied; values below map to Not satisfied.

Query: Could you tell me if the measured PBM E-score of CCGCACCA reaches 0.1 or more?
Reply: Not satisfied

Query: Assess whether reported PBM E-score for AGTCTTAT sits at 0.1 or higher.
Reply: Satisfied

Query: Confirm if PBM E-score reported for the sequence GTTGACAA is 0.1 or above.
Reply: Not satisfied

Query: Exam item: decide whether the reported PBM E-score for CAGGCGGC is at least 0.1.
Reply: Not satisfied

Query: Has CGCTCCCG a recorded PBM E-score greater than or equal to 0.1?
Reply: Satisfied

Query: Determine whether measured PBM E-score meets or exceeds 0.1 for CTTGACGC
Reply: Not satisfied

###

Target: Yer064c (UniProt P40041)
Sequence: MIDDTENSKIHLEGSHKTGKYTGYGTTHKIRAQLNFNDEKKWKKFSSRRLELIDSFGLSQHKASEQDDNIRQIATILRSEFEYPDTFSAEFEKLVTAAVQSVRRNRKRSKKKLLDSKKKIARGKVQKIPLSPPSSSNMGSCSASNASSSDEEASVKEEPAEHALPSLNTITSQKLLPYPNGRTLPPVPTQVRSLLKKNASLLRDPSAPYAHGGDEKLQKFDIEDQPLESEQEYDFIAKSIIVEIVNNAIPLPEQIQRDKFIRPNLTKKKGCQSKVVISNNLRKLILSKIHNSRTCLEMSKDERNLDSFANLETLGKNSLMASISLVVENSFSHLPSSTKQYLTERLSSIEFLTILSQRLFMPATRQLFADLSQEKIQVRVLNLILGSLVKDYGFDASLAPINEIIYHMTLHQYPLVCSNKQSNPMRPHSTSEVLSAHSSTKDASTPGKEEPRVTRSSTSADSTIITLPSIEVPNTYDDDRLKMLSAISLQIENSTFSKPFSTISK
Test: PBM E-score (8-mer binding enrichment) (E-score (-0.5 to 0.5)); higher = stronger / more preferred TF binding
Conditions: protein concentration: 200 nM; construct: GST-full length
In all, about 33,000 sequences were measured (“E-score (-0.5 to 0.5)”: median about -0.036, highest 2% from about 0.37 on). This is one part of a sample in which the highest values are shown more often than they occur.
Label scheme, based on PBM E-score: bottom end: < 0.07; midrange: ≥ 0.07 and < 0.4; top end: ≥ 0.4

Some solved cases for reference:
[
  {
    "residue string": "AGTGTCAT",
    "class assignment": "midrange"
  },
  {
    "residue string": "CTTACTCC",
    "class assignment": "midrange"
  },
  {
    "residue string": "CGTGATAC",
    "class assignment": "bottom end"
  },
  {
    "residue string": "CAGAATCA",
    "class assignment": "midrange"
  },
  {
    "residue string": "GTAGCCAA",
    "class assignment": "bottom end"
  },
  {
    "residue string": "AGAGAACT",
    "class assignment": "bottom end"
  },
  {
    "residue string": "GAGAATTA",
    "class assignment": "bottom end"
  },
  {
    "residue string": "CACGACAC",
    "class assignment": "bottom end"
  },
  {
    "residue string": "ACTATTCA",
    "class assignment": "midrange"
  },
  {
    "residue string": "AGAGTCTC",
    "class assignment": "midrange"
  }
]

Query: Which category fits this record: CGTGATTC
Reply: top end

Query: Quick check: band for ACGATTAC
Reply: midrange

Query: Please report the category associated with AGAGTCCC , nothing else.
Reply: bottom end

Query: Band for the recorded PBM E-score of GAGTCGTA ?
Reply: top end

Query: Band for the recorded PBM E-score of ATGATTAG ?
Reply: top end

Query: Kindly identify the class of AAACCACA .
Reply: bottom end

Query: # classify by PBM E-score band: ATGATTTG
Reply: midrange

Query: Returns: class label. Input: TGGGCGAA
Reply: bottom end

Query: Given AGTACTCC , name the class its PBM E-score places it in.
Reply: midrange

###

Assign PBM E-score to each entry below.
Biological target: Yer064c (UniProt P40041)
Sequence: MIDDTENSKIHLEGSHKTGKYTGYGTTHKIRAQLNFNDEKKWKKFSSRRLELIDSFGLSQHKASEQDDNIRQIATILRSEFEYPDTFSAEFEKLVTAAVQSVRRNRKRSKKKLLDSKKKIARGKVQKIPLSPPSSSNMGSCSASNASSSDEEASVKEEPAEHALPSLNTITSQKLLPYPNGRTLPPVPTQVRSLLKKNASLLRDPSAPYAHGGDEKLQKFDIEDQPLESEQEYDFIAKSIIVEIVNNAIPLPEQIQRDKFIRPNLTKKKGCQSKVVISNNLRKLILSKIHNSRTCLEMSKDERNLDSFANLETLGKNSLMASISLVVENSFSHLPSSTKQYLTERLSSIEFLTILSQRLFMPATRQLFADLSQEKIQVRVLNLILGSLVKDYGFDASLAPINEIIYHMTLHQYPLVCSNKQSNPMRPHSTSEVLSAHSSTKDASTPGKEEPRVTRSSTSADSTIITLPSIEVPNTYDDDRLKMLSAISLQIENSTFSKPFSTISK
Experiment: PBM E-score (8-mer binding enrichment) (E-score (-0.5 to 0.5)); higher = stronger / more preferred TF binding
Settings: protein concentration: 200 nM; construct: GST-full length
Whole data set: some 33,000 sequences, median “E-score (-0.5 to 0.5)” near -0.036, cut for the highest 2% near 0.37. The entries come from a sample that favours the highest values as a whole.
Answers are plain numbers.

[
  {
    "residue string": "CGCAGTCC",
    "readout name": "PBM E-score",
    "result": 0.134
  },
  {
    "residue string": "AAGTCATC",
    "readout name": "PBM E-score",
    "result": 0.471
  },
  {
    "residue string": "TGACGACA",
    "readout name": "PBM E-score",
    "result": 0.102
  },
  {
    "residue string": "ACTAATCC",
    "readout name": "PBM E-score",
    "result": 0.208
  },
  {
    "residue string": "ACATCACA",
    "readout name": "PBM E-score",
    "result": -0.0462
  },
  {
    "residue string": "AAGTCATT",
    "readout name": "PBM E-score",
    "result": 0.454
  },
  {
    "residue string": "ACGTCATG",
    "readout name": "PBM E-score",
    "result": 0.21
  },
  {
    "residue string": "AACTACTA",
    "readout name": "PBM E-score",
    "result": -0.0232
  },
  {
    "residue string": "AAGTCATA",
    "readout name": "PBM E-score",
    "result": 0.46
  },
  {
    "residue string": "ATGATTAA",
    "readout name": "PBM E-score",
    "result": 0.472
  }
]

Below are some sequences; for each one, tell me its PBM E-score.
1. CCTATAGC
2. CATTCAAC
3. AGCAGTCG
4. CGCGATAC

Reply:
1. -0.178
2. 0.0337
3. 0.065
4. -0.206

For every listed record, write down its PBM E-score.
1. CCTACCCA
2. CAGTAACA
3. GCATTTCC
4. TCTAATCA
5. AACAACCA

Reply:
[-0.0884, 0.0175, -0.0262, 0.386, 0.13]

Count: 6. Required value per item: PBM E-score.
1. CTACAGAC
2. AGCGCATC
3. ACCCCTAA
4. AGGAGCTC
5. GGCCGGAA
6. CATAGGCC

Reply:
1: -0.184; 2: -0.0879; 3: -0.0884; 4: -0.0695; 5: -0.146; 6: -0.158
